Data provenance: paper PMC7795340

# Target under test: UniProt:P22303
# Sequence (P22303 other isoform, or with tags, fused parts or gaps): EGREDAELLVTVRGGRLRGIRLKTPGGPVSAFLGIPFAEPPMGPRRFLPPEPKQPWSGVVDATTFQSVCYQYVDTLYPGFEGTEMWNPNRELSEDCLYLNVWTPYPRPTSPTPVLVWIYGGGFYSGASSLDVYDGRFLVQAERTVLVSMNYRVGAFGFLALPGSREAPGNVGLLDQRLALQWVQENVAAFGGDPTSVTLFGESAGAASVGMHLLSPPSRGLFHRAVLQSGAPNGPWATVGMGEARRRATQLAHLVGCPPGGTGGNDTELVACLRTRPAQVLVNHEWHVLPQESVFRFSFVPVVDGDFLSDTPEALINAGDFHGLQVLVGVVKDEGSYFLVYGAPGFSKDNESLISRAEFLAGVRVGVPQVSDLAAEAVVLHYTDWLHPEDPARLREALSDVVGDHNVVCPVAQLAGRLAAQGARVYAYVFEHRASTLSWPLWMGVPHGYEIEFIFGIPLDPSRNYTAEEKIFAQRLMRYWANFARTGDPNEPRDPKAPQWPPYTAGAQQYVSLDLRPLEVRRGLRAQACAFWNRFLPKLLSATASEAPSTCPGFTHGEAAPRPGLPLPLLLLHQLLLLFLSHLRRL
# Assay overview: biochemical
# Experimental conditions: value in nM; read-out: (h)AChE IC50
Readout type: IC50 (nM)
Give bare numbers, in nM.

Exercise: Fill in: IC50 of C#CCN[C@@H]1c2cc(OC)c(OC)cc2C(=O)[C@H]1CC1CCN(Cc2ccccc2)CC1 (relative stereo) [Trans-PADPZ (19)] is ___
Key: 440

###

# Target under test: (eq)BuChE (BuChE from equine serum) (Equus caballus)
# Sequence (P81908 whole entry): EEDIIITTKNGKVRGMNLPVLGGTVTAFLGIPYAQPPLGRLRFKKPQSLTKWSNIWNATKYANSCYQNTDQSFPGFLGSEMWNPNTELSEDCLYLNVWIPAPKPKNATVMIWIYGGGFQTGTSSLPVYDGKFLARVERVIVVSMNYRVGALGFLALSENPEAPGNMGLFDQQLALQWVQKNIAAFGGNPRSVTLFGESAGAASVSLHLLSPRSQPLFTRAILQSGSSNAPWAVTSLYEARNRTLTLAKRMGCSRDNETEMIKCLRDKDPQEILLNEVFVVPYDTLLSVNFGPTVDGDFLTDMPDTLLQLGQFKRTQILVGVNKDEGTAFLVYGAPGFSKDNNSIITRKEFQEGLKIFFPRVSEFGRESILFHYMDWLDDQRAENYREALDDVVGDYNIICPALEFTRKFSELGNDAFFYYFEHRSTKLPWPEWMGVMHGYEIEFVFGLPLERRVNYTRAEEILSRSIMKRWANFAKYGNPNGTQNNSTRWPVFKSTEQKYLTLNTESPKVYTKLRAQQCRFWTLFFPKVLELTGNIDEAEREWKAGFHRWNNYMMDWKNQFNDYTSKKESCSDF
# Assay overview: (eq)BuChE inhibition, Ellman test
# Assay type: biochemical
# Experimental conditions: (eq)BuChE IC50 (µM) (n = 3), mean ± SEM, n = 3
Readout type: IC50

Exercise: Which value of IC50 has been reported for C#CCN[C@@H]1c2cc(OC)c(OC)cc2C(=O)[C@H]1CC1CCN(Cc2ccccc2)CC1 (relative stereo) [Trans-PADPZ (19)] in the records?
Key: 4.23 µM

###

# Target under test: human recombinant MAO-B (Homo sapiens)
# Construct: purchased Sigma Aldrich; host or cells: baculovirus infected insect cells (microsomes)
# Sequence (P27338 whole entry): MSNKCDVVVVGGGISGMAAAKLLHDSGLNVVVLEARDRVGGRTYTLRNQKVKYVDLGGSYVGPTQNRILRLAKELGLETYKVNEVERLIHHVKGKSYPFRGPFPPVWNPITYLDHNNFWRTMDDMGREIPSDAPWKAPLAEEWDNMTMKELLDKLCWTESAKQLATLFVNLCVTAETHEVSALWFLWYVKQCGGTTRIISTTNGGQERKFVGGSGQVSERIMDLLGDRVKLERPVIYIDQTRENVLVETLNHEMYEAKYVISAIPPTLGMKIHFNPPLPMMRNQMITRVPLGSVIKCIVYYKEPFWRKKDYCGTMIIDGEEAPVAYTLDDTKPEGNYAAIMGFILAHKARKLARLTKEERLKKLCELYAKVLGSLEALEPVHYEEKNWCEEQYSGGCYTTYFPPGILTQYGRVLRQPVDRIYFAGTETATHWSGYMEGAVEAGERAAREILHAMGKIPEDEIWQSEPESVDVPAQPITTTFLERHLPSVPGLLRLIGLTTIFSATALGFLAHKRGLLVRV
# Assay overview: (h)MAO-B inhibition, kynuramine fluorescence assay
# Assay type: biochemical
# Experimental conditions: (h)MAO-B IC50 (µM) (n = 3), mean ± SEM, n = 3; kynuramine 50 µM
Readout type: IC50 (µM)
Numbers only, in µM.

Exercise: // IC50 lookup, key: C#CCNC1CC(=O)c2cc(OC)c(OC)cc21 (stereo not shown)
Key: 13.4
